- System: T1, dUnr CSD78 (Drosophila melanogaster, UniProt B7Z0E2 756-922)
- T1 sequence: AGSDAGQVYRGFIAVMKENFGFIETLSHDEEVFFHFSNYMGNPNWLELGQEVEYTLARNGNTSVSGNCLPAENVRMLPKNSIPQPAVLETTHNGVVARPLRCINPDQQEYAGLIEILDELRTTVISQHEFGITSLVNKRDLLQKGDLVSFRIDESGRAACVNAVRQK
- Experimental details: NMR titration; joint range given for CSD78 and CSD9; EMSA: 20 mM HEPES/NaOH pH 7.5, 50 mM NaCl, 10% glycerol, 2 mM DTT, 1 h at 4 C, ~25 nM RNA; NMR: 20 mM NaP pH 6.5, 50 mM NaCl, 1 mM DTT (10 mM for CSD12), 10% D2O, 298 K
- Measurement conditions: protein: recombinant; tags: tag cleaved with TEV
Measure: Kd

Given AAAAAAAUG (ssRNA) [9-mer RNA from roX2 SL6 loop] , state its recorded Kd.
~245 µM

From: paper PMC7383231
